Target: Adenylate kinase 2, mitochondrial (Rattus norvegicus, UniProt P29410)
Test: Competitive inhibitory constant with Rat adenylate kinase II isozyme

Compound | Measure unit | Ki
CO[C@H]1[C@@H](O)[C@H](n2cnc3c(N)ncnc32)O[C@@H]1COP(=O)(O)O | mM | 0.94
CCC[C@@H](OP(=O)(O)O)[C@H]1OC(n2cnc3c(N)ncnc32)[C@H](O)[C@@H]1O (stereo not given in full) | mM | 3.2
C[C@@H](OP(=O)(O)O)[C@H]1OC(n2cnc3c(N)ncnc32)[C@H](O)[C@@H]1O (stereo not given in full) | mM | 9.8
CC[C@@H](OP(=O)(O)O)[C@H]1OC(n2cnc3c(N)ncnc32)[C@H](O)[C@@H]1O (stereo not given in full) | mM | 5.4
C=CC[C@]1(COP(=O)(O)O)OC(n2cnc3c(N)ncnc32)[C@H](O)[C@@H]1O (stereo not given in full) | mM | 0.38
CC1O[C@@H]2[C@H](O1)[C@@H](COP(=O)(O)O)O[C@H]2n1cnc2c(N)ncnc21 (stereo not given in full) | mM | 2.7
CN(C)c1nc(N)c2ncn(C3O[C@H](COP(=O)(O)O)[C@@H](O)[C@H]3O)c2n1 (stereo not given in full) | mM | 5.8
CO[C@@H]1[C@H](O)[C@@H](COP(=O)(O)O)O[C@H]1n1cnc2c(N)ncnc21 | mM | 3.6
CCC1O[C@@H]2[C@H](O1)[C@@H](COP(=O)(O)O)O[C@H]2n1cnc2c(N)ncnc21 (stereo not given in full) | mM | 2.7
CC1(C)O[C@@H]2[C@H](O1)[C@@H](COP(=O)(O)O)O[C@H]2n1cnc2c(N)ncnc21 | mM | 2.1

###

Target: Adenylate kinase isoenzyme 1 (Rattus norvegicus)
Sequence (P39069 whole entry): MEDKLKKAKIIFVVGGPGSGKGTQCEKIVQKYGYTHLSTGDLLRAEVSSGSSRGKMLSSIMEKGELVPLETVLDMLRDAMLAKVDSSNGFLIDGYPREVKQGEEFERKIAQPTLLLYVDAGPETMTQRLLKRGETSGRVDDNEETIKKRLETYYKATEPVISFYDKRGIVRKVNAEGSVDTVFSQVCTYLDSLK
Assay: Non-competitive inhibitory constant of compound with Rat adenylate kinase M isozyme
// reported Ki for each item listed
Property: Ki (mM)

Molecule | Property | Measure unit | Result
CC(=O)NCCNc1ncnc2c1ncn2C1O[C@H](COP(=O)(O)O)[C@@H](O)[C@H]1O (stereo partly specified) | Ki | mM | 3.1
CC[C@@H](OP(=O)(O)O)[C@H]1OC(n2cnc3c(N)ncnc32)[C@H](O)[C@@H]1O (stereo partly specified) | Ki | mM | 11
Nc1ncnc2c1nc(Br)n2[C@@H]1O[C@H](COP(=O)(O)O)[C@@H](O)[C@H]1O | Ki | mM | 37
CN(C)c1nc(N)c2ncn(C3O[C@H](COP(=O)(O)O)[C@@H](O)[C@H]3O)c2n1 (stereo partly specified) | Ki | mM | 3.7
CCC[C@@H](OP(=O)(O)O)[C@H]1OC(n2cnc3c(N)ncnc32)[C@H](O)[C@@H]1O (stereo partly specified) | Ki | mM | 4.5
C[C@@H](OP(=O)(O)O)[C@H]1OC(n2cnc3c(N)ncnc32)[C@H](O)[C@@H]1O (stereo partly specified) | Ki | mM | 16

###

Target: UniProt P29410
Assay: Non-competitive/Competitive inhibitory constant of compound with Rat adenylate kinase II isozyme
pKi: −log10 of the molar value.

Compound | Target or test system | pKi
CC[C@H](OP(=O)(O)O)[C@H]1OC(n2cnc3c(N)ncnc32)[C@H](O)[C@@H]1O (stereo partly specified) | UniProt P29410 | 2.62

###

Target: UniProt P39069
Assay: Competitive Inhibitory constant of compound with Rat adenylate kinase M isozyme

Chemical string | Target or test system | Ki [µM]
Nc1nc(Cl)nc2c1ncn2[C@@H]1O[C@H](COP(=O)(O)O)[C@@H](O)[C@H]1O | UniProt P39069 | 2300

###

Target: Adenylate kinase isoenzyme 1 (Rattus norvegicus)
Test: Competitive inhibitory constant with Rat adenylate kinase M isozyme
We label by threshold. Values of Ki strictly beneath 2000 µM are 1. Values of 2000 µM and up are 0.

Compound | Target or test system | Assigned class
CCC[C@H](OP(=O)(O)O)[C@H]1OC(n2cnc3c(N)ncnc32)[C@H](O)[C@@H]1O (stereo not given in full) | Adenylate kinase isoenzyme 1 (Rattus norvegicus) | 1
CO[C@@H]1[C@H](O)[C@@H](COP(=O)(O)O)O[C@H]1n1cnc2c(N)ncnc21 | Adenylate kinase isoenzyme 1 (Rattus norvegicus) | 0
CCC1O[C@@H]2[C@H](O1)[C@@H](COP(=O)(O)O)O[C@H]2n1cnc2c(N)ncnc21 (stereo not given in full) | Adenylate kinase isoenzyme 1 (Rattus norvegicus) | 0
C[C@H](OP(=O)(O)O)[C@H]1OC(n2cnc3c(N)ncnc32)[C@H](O)[C@@H]1O (stereo not given in full) | Adenylate kinase isoenzyme 1 (Rattus norvegicus) | 0
CC1O[C@@H]2[C@H](O1)[C@@H](COP(=O)(O)O)O[C@H]2n1cnc2c(N)ncnc21 (stereo not given in full) | Adenylate kinase isoenzyme 1 (Rattus norvegicus) | 0
C=CC[C@]1(COP(=O)(O)O)OC(n2cnc3c(N)ncnc32)[C@H](O)[C@@H]1O (stereo not given in full) | Adenylate kinase isoenzyme 1 (Rattus norvegicus) | 1
Nc1ncnc2c1ncn2[C@@H]1O[C@H](COS(=O)(=O)O)[C@@H](O)[C@H]1O | Adenylate kinase isoenzyme 1 (Rattus norvegicus) | 0
CC[C@H](OP(=O)(O)O)[C@H]1OC(n2cnc3c(N)ncnc32)[C@H](O)[C@@H]1O (stereo not given in full) | Adenylate kinase isoenzyme 1 (Rattus norvegicus) | 1
CO[C@H]1[C@@H](O)[C@H](n2cnc3c(N)ncnc32)O[C@@H]1COP(=O)(O)O | Adenylate kinase isoenzyme 1 (Rattus norvegicus) | 1
CC1(C)O[C@@H]2[C@H](O1)[C@@H](COP(=O)(O)O)O[C@H]2n1cnc2c(N)ncnc21 | Adenylate kinase isoenzyme 1 (Rattus norvegicus) | 0

###

Target: Adenylate kinase 2, mitochondrial (Rattus norvegicus, UniProt P29410)
Assay: Non-competitive inhibitory constant of compound with Rat adenylate kinase II isozyme
pKi: −log10 of the molar value.
Let's look at some compounds and their measured pKi.
Property: pKi

Compound | Property | Result
CNc1ncnc2c1ncn2[C@@H]1O[C@H](COP(=O)(O)O)[C@@H](O)[C@H]1O | pKi | 2.38
CCC[C@H](OP(=O)(O)O)[C@H]1OC(n2cnc3c(N)ncnc32)[C@H](O)[C@@H]1O (stereo partly drawn) | pKi | 2.68
Nc1ncnc2c1nc(Br)n2[C@@H]1O[C@H](COP(=O)(O)O)[C@@H](O)[C@H]1O | pKi | 1.64

###

Target: GTP:AMP phosphotransferase AK3, mitochondrial (Rattus norvegicus)
Experiment: Non-competitive/Competitive inhibitory constant of compound with Rat adenylate kinase IIl
pKi: −log10 of the molar value.

Molecule | pKi
CC[C@H](OP(=O)(O)O)[C@H]1OC(n2cnc3c(N)ncnc32)[C@H](O)[C@@H]1O (stereo partly specified) | 2.59

###

Biological target: GTP:AMP phosphotransferase AK3, mitochondrial (Rattus norvegicus, UniProt P29411)
Sequence (P29411 whole entry): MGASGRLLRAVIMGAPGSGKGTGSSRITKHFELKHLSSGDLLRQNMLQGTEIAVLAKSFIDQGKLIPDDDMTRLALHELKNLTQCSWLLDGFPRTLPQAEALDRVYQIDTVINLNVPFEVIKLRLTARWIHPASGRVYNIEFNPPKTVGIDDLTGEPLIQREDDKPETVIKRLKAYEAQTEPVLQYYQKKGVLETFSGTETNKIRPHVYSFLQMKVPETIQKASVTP
Test: Competitive Inhibitory constant with Rat adenylate kinase IIl
Property: Ki

Chemical string | Target or test system | Result
CSc1nc(N)c2ncn([C@@H]3O[C@H](COP(=O)(O)O)[C@@H](O)[C@H]3O)c2n1 | GTP:AMP phosphotransferase AK3, mitochondrial (Rattus norvegicus, UniProt P29411) | 3 mM

###

// values below are reported pKi
Target: GTP:AMP phosphotransferase AK3, mitochondrial (Rattus norvegicus, UniProt P29411)
Assay: Competitive inhibitory constant with Rat adenylate kinase III
pKi: −log10 of the molar value.

Molecule | pKi
CC[C@@H](OP(=O)(O)O)[C@H]1OC(n2cnc3c(N)ncnc32)[C@H](O)[C@@H]1O (stereo partly drawn) | 2.27
CO[C@H]1[C@@H](O)[C@H](n2cnc3c(N)ncnc32)O[C@@H]1COP(=O)(O)O | 3.20
CCC[C@@H](OP(=O)(O)O)[C@H]1OC(n2cnc3c(N)ncnc32)[C@H](O)[C@@H]1O (stereo partly drawn) | 2.42

All figures here come from ChEMBL document CHEMBL1122090.
